# assay_name: Metabolic stability of the compound in human liver microsomes assessed as compound remaining at 2 mM after 30 mins by LC/MS analysis
# Format: ADME, Microsome
# stated_conditions: read-out: Stability
Known remaining at 0.5 h of a selection of compounds
outcome_measure: remaining at 0.5 h (%)

CCOc1ccc(-c2cc(Cl)cc3c2OC(C(F)(F)F)C(C(=O)O)=C3)cc1 (centres undefined) : 91
CCc1ccc(-c2cc(Cl)cc3c2OC(C(F)(F)F)C(C(=O)O)=C3)cc1 (centres undefined) : 18
CCSc1ccc(-c2cc(Cl)cc3c2OC(C(F)(F)F)C(C(=O)O)=C3)cc1 (centres undefined) : 75
Cc1ccc(-c2cc(Cl)cc3c2OC(C(F)(F)F)C(C(=O)O)=C3)cc1F (centres undefined) : 31
Cc1ccc(-c2cc(Cl)cc3c2OC(C(F)(F)F)C(C(=O)O)=C3)cc1 (centres undefined) : 18
COc1ccc(-c2cc(Cl)cc3c2OC(C(F)(F)F)C(C(=O)O)=C3)cc1C (centres undefined) : 84
O=C(O)C1=Cc2cc(Cl)cc(-c3ccc(Cl)cc3)c2OC1C(F)(F)F (centres undefined) : 53
CS(=O)(=O)Nc1ccc(-c2cc(Cl)cc3c2OC(C(F)(F)F)C(C(=O)O)=C3)cc1 (centres undefined) : 100
O=C(O)C1=Cc2cc(Cl)cc(-c3ccc(C(=O)O)cc3)c2OC1C(F)(F)F (centres undefined) : 90
Nc1ccc(-c2cc(Cl)cc3c2OC(C(F)(F)F)C(C(=O)O)=C3)cc1 (centres undefined) : 93
O=C(O)C1=Cc2cc(Cl)cc(-c3ccc(CO)cc3)c2OC1C(F)(F)F (centres undefined) : 93
CC(C)Cc1ccc(-c2cc(Cl)cc3c2OC(C(F)(F)F)C(C(=O)O)=C3)cc1 (centres undefined) : 88
O=C(O)C1=Cc2cc(Cl)cc(-c3ccc(O)cc3)c2OC1C(F)(F)F (centres undefined) : 91
O=C(O)C1=Cc2cc(Cl)cc(Cl)c2OC1C(F)(F)F (centres undefined) : 100

---

# assay_name: Half life in human
# Assay type: ADME, organism-based
# stated_conditions: in vivo
outcome_measure: half-life

O=C(O)C1=Cc2cc(Cl)cc(Cl)c2OC1C(F)(F)F (stereo unspecified) : 15 days

---

# Species: Homo sapiens
# assay_name: Selectivity ratio of IC50 for human COX1 to IC50 for human COX2
Classification by Selectivity ratio | ranges: 0 (below 0.8), 1 (0.8 to below 90), 2 (90 or more)

O=C(O)C1=Cc2cc(Cl)cc(-c3ccc(F)cc3)c2OC1C(F)(F)F (stereo not given) : 0
CS(=O)(=O)c1ccc(-c2cc(Cl)cc3c2OC(C(F)(F)F)C(C(=O)O)=C3)cc1 (stereo not given) : 0
Cc1ccc(-c2cc(Cl)cc3c2OC(C(F)(F)F)C(C(=O)O)=C3)cc1 (stereo not given) : 1
Cc1ccc(-c2cc(Cl)cc3c2OC(C(F)(F)F)C(C(=O)O)=C3)cc1F (stereo not given) : 2
COc1ccc(-c2cc(Cl)cc3c2OC(C(F)(F)F)C(C(=O)O)=C3)cc1C (stereo not given) : 2
CCc1ccc(-c2cc(Cl)cc3c2OC(C(F)(F)F)C(C(=O)O)=C3)cc1 (stereo not given) : 2
NS(=O)(=O)c1ccc(-c2cc(Cl)cc3c2OC(C(F)(F)F)C(C(=O)O)=C3)cc1 (stereo not given) : 2
CC(C)Cc1ccc(-c2cc(Cl)cc3c2OC(C(F)(F)F)C(C(=O)O)=C3)cc1 (stereo not given) : 1
Nc1ccc(-c2cc(Cl)cc3c2OC(C(F)(F)F)C(C(=O)O)=C3)cc1 (stereo not given) : 0
O=C(O)C1=Cc2cc(Cl)cc(-c3ccc(O)cc3)c2OC1C(F)(F)F (stereo not given) : 1
O=C(O)C1=Cc2cc(Cl)cc(-c3ccc(CO)cc3)c2OC1C(F)(F)F (stereo not given) : 0
O=C(O)C1=Cc2cc(Cl)cc(-c3ccc(Cl)cc3)c2OC1C(F)(F)F (stereo not given) : 1
O=C(O)C1=Cc2cc(Cl)cc(-c3ccccc3)c2OC1C(F)(F)F (stereo not given) : 1

---

# assay_name: Metabolic stability of the compound in rat liver microsomes assessed as compound remaining at 2 mM after 30 mins by LC/MS analysis
# Format: ADME, Microsome
# stated_conditions: read-out: Stability
Just a reminder that ties go to not satisfied: only remaining at 0.5 h strictly below 60% counts as satisfied.

CCOc1ccc(-c2cc(Cl)cc3c2OC(C(F)(F)F)C(C(=O)O)=C3)cc1 (centres undefined) : not satisfied
O=C(O)C1=Cc2cc(Cl)cc(-c3ccc(C(=O)O)cc3)c2OC1C(F)(F)F (centres undefined) : not satisfied
CS(=O)(=O)Nc1ccc(-c2cc(Cl)cc3c2OC(C(F)(F)F)C(C(=O)O)=C3)cc1 (centres undefined) : satisfied
O=C(O)C1=Cc2cc(Cl)cc(-c3ccc(O)cc3)c2OC1C(F)(F)F (centres undefined) : not satisfied
Nc1ccc(-c2cc(Cl)cc3c2OC(C(F)(F)F)C(C(=O)O)=C3)cc1 (centres undefined) : satisfied
O=C(O)C1=Cc2cc(Cl)cc(Cl)c2OC1C(F)(F)F (centres undefined) : not satisfied
CCSc1ccc(-c2cc(Cl)cc3c2OC(C(F)(F)F)C(C(=O)O)=C3)cc1 (centres undefined) : satisfied
O=C(O)C1=Cc2cc(Cl)cc(-c3ccc(CO)cc3)c2OC1C(F)(F)F (centres undefined) : not satisfied
Cc1ccc(-c2cc(Cl)cc3c2OC(C(F)(F)F)C(C(=O)O)=C3)cc1F (centres undefined) : satisfied
O=C(O)C1=Cc2cc(Cl)cc(-c3ccc(Cl)cc3)c2OC1C(F)(F)F (centres undefined) : satisfied
CC(C)Cc1ccc(-c2cc(Cl)cc3c2OC(C(F)(F)F)C(C(=O)O)=C3)cc1 (centres undefined) : not satisfied

---

# assay_name: Solubility of the compound
# Type: physicochemical
# stated_conditions: read-out: Stability
outcome_measure: solubility

O=C(O)C1=Cc2cc(Cl)cc(Cl)c2OC1C(F)(F)F (stereo unspecified) : > 30 µM

---

In what follows, each item is paired with its IC50 for Prostaglandin G/H synthase 1 (Homo sapiens, UniProt P23219).
outcome_measure: IC50 (µM)

Nc1ccc(-c2cc(Cl)cc3c2OC(C(F)(F)F)C(C(=O)O)=C3)cc1 (centres undefined) : 1.39
O=C(O)C1=Cc2cc(Cl)cc(-c3ccc(O)cc3)c2OC1C(F)(F)F (centres undefined) : 2.91
CCOc1ccc(-c2cc(Cl)cc3c2OC(C(F)(F)F)C(C(=O)O)=C3)cc1 (centres undefined) : 32
CC(C)Cc1ccc(-c2cc(Cl)cc3c2OC(C(F)(F)F)C(C(=O)O)=C3)cc1 (centres undefined) : 26.5
CS(=O)(=O)c1ccc(-c2cc(Cl)cc3c2OC(C(F)(F)F)C(C(=O)O)=C3)cc1 (centres undefined) : 3.87
NS(=O)(=O)c1ccc(-c2cc(Cl)cc3c2OC(C(F)(F)F)C(C(=O)O)=C3)cc1 (centres undefined) : 91.4
CCc1ccc(-c2cc(Cl)cc3c2OC(C(F)(F)F)C(C(=O)O)=C3)cc1 (centres undefined) : 17.7

---

In what follows, each item is paired with its IC50 for Prostaglandin G/H synthase 2 (Homo sapiens).
outcome_measure: IC50 (nM)

O=C(O)C1=Cc2cc(Cl)cc(-c3ccc(O)cc3)c2OC1C(F)(F)F (stereo unspecified) : 3480
Cc1ccc(-c2cc(Cl)cc3c2OC(C(F)(F)F)C(C(=O)O)=C3)cc1 (stereo unspecified) : 103
O=C(O)C1=Cc2cc(Cl)cc(-c3ccccc3)c2OC1C(F)(F)F (stereo unspecified) : 188
COc1ccc(-c2cc(Cl)cc3c2OC(C(F)(F)F)C(C(=O)O)=C3)cc1C (stereo unspecified) : 339
CS(=O)(=O)c1ccc(-c2cc(Cl)cc3c2OC(C(F)(F)F)C(C(=O)O)=C3)cc1 (stereo unspecified) : 21300

---

# assay_name: Metabolic stability of the compound in rat liver microsomes assessed as compound remaining at 2 mM after 30 mins by LC/MS analysis
# Format: ADME, Microsome
# stated_conditions: read-out: Stability
outcome_measure: remaining at 0.5 h

Cc1ccc(-c2cc(Cl)cc3c2OC(C(F)(F)F)C(C(=O)O)=C3)cc1 (stereo not drawn) : 60%
CCc1ccc(-c2cc(Cl)cc3c2OC(C(F)(F)F)C(C(=O)O)=C3)cc1 (stereo not drawn) : 60%
COc1ccc(-c2cc(Cl)cc3c2OC(C(F)(F)F)C(C(=O)O)=C3)cc1C (stereo not drawn) : 61%
